- target-of-assay: MshE-N (Shewanella putrefaciens, UniProt A0ABX8XDM4)
- Construct: N-terminal domain aa 2-145, His-tag purified from E. coli BL21(DE3); strain inferred from locus prefix Sputcn32
- test-protocol: isothermal titration calorimetry
- study-conditions: 25 °C; one set of binding sites; value only in figure; read-out: dissociation constant

>  <given-smiles>
Nc1nc2c(ncn2[C@@H]2O[C@@H]3CO[P@](=O)(O)O[C@H]4[C@@H](O)[C@H](n5cnc6c(=O)[nH]c(N)nc65)O[C@@H]4CO[P@](=O)(O)O[C@H]3[C@H]2O)c(=O)[nH]1

>  <units-label>
µM

>  <Kd>
4

$$$$
